Catalogue of binders with associated EC50
Biological target: T1, human CD19 on Raji cells (human, UniProt P15391 20-556)
T1 construct: whole, on cells
T1 sequence (looked up): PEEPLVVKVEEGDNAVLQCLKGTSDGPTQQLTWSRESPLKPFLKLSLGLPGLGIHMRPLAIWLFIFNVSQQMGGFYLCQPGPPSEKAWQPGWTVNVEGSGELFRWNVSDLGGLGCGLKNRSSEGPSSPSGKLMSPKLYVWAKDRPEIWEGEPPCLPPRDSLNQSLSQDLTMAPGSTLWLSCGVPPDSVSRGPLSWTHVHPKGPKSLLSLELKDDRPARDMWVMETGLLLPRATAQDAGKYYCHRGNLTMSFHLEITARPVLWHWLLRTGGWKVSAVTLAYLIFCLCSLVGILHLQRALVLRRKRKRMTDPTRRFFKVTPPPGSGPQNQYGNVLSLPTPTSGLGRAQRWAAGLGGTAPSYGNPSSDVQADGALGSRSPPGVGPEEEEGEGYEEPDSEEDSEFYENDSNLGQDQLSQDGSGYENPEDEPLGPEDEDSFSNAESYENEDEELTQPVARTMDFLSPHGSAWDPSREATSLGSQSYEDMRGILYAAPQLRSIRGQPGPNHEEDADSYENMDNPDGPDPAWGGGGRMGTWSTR
Assay: FACS on Raji cells

| binder | EC50 (nM) |
| --- | --- |
| F3.13.2 (antibody, human IgG1, V domains shown, human-murine chimeric antibody, human IgG1) VH: DVQLQESGPGLMKPSQSLSLTCSVTGYSITSGYYWNWIRQFPGNKLEWMGYISYDGSNNYNPSLKNRFSITRDTSKNQFFLKLNSVTTEDTATYYCARRKLTGGPYFDYWGQGTTLTVSS VL: DIVLTQSPASLAVTLGQRATISCRASESVSFHGFHIMHWYQQKPGQPPKLLIYAASHLVSGVPDRFSGSGSETDFTLNIHPVEEEDAAAYFCQQSVEDPWTFGGGTKLEIK | 5.24 |
| F4.145.9 (antibody, human IgG1, V domains shown, human-murine chimeric antibody, human IgG1) VH: EVQLVESGGGLVKPGGSLKLSCAAAGFAFSSYDMSWVRQIPEKRLEWVAYISAGGGNTYFLDTVKGRFTISRDHAKNTLSLQMSSLKSEDTAMYFCVRHGDYYRYFYAMDYWGQGSSVTVSS VL: DIVMTQSHKFMSTSVGDRVSITCKASQDVGTAVAWSQQKPGQSPKLLIYWASTRHTGVPDRFTGSGSGTDFTLTISNVQSEDLADYFCQQFVTYPYTFGGGTKLEIK | 0.78 |
| F4.21.2 (antibody, human IgG1, V domains shown, human-murine chimeric antibody, human IgG1) VH: QVQLKQSGPGLVQPSQSLSITCTVSGFSLSTYGVHWVRQSPGRGLEWLGVIWIGGTTDYNAAFISRLTISKDNSRGQVFFKMDSLQANDTAIYYCARKGYYKYDGGYYYAMDYWGQGTSVTVSS VL: DIQMTQSSSYLSVSLGGRVTITCKASDHINNWLAWYQQKPGNAPWLLISGATSLETGVPSRFSGSGSGKDYTLSISSLQTEDVATYYCQQYWSTPLTFGAGTKLELK | 2.69 |

Data provenance is patent US20250042994A1.
